# System Name: Sentrin-specific protease 7 (Homo sapiens);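 note: Luminescence-based dose-response confirmation of ultra-high-throughput screening hits, measuring inhibition of SENP7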
# Sequence (Q9BQF6 whole entry): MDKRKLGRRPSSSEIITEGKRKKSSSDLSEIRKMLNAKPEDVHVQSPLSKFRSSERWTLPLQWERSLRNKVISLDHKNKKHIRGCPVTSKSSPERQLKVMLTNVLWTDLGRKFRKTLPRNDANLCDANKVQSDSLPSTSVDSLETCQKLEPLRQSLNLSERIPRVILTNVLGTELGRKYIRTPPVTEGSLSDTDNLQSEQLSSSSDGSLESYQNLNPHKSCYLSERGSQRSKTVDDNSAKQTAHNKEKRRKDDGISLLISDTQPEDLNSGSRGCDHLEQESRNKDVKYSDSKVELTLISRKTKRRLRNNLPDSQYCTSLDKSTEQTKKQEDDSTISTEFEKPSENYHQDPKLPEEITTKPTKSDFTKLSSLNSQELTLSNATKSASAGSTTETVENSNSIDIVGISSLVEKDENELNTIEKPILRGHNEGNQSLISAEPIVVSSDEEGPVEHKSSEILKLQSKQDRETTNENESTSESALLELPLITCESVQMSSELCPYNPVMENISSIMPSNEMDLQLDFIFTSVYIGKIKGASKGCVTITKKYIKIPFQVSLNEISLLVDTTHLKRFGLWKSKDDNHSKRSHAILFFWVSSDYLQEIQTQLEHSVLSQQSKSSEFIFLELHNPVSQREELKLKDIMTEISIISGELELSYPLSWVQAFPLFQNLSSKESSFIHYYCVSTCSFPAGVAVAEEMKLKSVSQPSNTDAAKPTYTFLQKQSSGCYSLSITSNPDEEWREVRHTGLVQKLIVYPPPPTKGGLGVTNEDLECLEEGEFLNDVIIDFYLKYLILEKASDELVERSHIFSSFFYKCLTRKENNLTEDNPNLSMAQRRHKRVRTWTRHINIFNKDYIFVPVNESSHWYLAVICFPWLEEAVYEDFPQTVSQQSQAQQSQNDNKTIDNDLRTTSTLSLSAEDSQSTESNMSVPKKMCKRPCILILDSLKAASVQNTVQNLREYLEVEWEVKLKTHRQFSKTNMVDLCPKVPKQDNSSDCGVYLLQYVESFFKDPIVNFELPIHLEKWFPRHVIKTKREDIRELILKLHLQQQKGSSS
# Format: functional
Active and inactive are the calls of the source.
Quantity Kind: IC50

Recorded IC50, per entry:
Structure Smiles String: O=C(O)c1cccc(-c2nnn(Cc3ccccc3Cl)n2)c1
IC50: > 100 µM (inactive)
//
Structure Smiles String: CCOC(=O)c1ccccc1N/C=C/C(=O)c1ccccc1
IC50: 9.9 µM (active)
//
Structure Smiles String: Cc1ccc(C(=O)COC(=O)c2cccc(NC(=O)c3ccc([N+](=O)[O-])cc3[N+](=O)[O-])c2)cc1
IC50: 5.97 µM (active)

Entry `Cc1c(Cl)cnc(NC(=O)COC(=O)c2ccc([N+](=O)[O-])s2)c1Cl` , tested on Sentrin-specific protease 7 (Homo sapiens), has a reported IC50 of 10.6 µM (active)
